Where do the numbers come from? From patent US20220144922A1.

- Study system: RSV F protein of subtype A strain A2, on virus (respiratory syncytial virus subtype A …, UniProt P03420 26-574)
- Test: cell-based or functional assay
Please respond with Yes when measured Neut IC50 (ug/ml) subtype A is strictly beneath 0.9 µg/mL, and with No in all other cases.

Here are 2 binders together with their reported answers.
# Binder, Class assignment
data = [
    ("ADI-15005 (antibody, V domains shown, IgG; also called Antibody Number 124) VH: QVQLVESGPALVKPTQTLTLTCSFSGFSLTTRRMCVSWIRQTPGKALEWLARIDWDDDKDYSTSLKTRLTISKDTSKNQVVLTMTNMDPVDTATYYCARTHIYDSSGYYLYYFDYWGQGTLVTVSS VL: DIVLTQSPSSLSASIGDRVTITCRASQTIASYLNWYQQKPGKAPELLIYAATNLQSGVPSRFSGSGSGTDFTLTISSLRPEDFASYYCQQSYSSPWTFGQGTKVDIK", "No"),
    ("ADI-15613 (antibody, V domains shown) VH: EVQLVESGAEVKKPGSSVKVSCKVSGGTFSTYGISWIQQAPGQGLEWVGGIIPMFGTANYAQRFQGRVTLTADEGTNTAYMELNNLRSEDTAMYYCARDRGNNGRYYAMDVWGQGTTVTVSS VL: DIVLTQTPATLSLSPGERATLSCRASQSVTTYLAWYQQKPGQAPRLLIYDTSNRATGIPARFSGSGSGTDFTLTISSLEPEDFAVYYCQQRNNWPPTFGQGTRLEIK", "Yes"),
]

Prompt: Would you kindly verify if Neut IC50 (ug/ml) subtype A of ADI-15573 (antibody, V domains shown, IgG; also called Antibody Number 143) VH: QVQLVQSGAEVKKPGASVKISCKTSGYTFTSSVISWVRQAPGQGLEWVGWITGHRSSTNYAQRLQGRVTMTTDTSTSTAYMELRSLRSDDTAVYYCARADGGSGSYYSAWGQGTLVTVSS VL: SYELTQPPSASVAPGKTARISCGGNNIGTKSVHWYQQKPGQAPVLVIYHDSHRPSGIPERFSGSNSGNTATLTISRVEAGDEADYYCQLWDSSSDSHVFGTGTKLTVL is strictly less than 0.9 µg/mL?
Response: No

Prompt: Does the reported Neut IC50 (ug/ml) subtype A of the following binder sit strictly below 0.9 µg/mL? ADI-15588 (antibody, V domains shown, IgG; also called Antibody Number 155) VH: EVQLVESGPGLVKPSETLSLICRVFGGSVRRGDYNWNWIRQPPGKGLEWIGYIDYSGTTKYNPSLKSRVTISEDTSRNQFSLELRSVTAADTAMYYCARDVGSTPYNYYGMDVWGQGTTVTVSS VL: EIVLTQSPGTLSLSPGERATLSCRASQTIKNNYLAWYQQKPGQAPRLLMYGVSSRPTGIPDRFSGSGSGTDFSLTIDRLEPEDFAVYYCQQFGRSPELTFGGGTKVEIK
Response: Yes

Prompt: Is it true that Neut IC50 (ug/ml) subtype A reported for ADI-15625 (antibody, V domains shown, IgG; also called Antibody Number 190) VH: EVQLVESGAEVRKPGASVQVSCKASGYTFTSYYMHWVRQAPGHGLEWMGMIYPSGGSTSYAQKFQGRVTMTRDTSTSTVYMELSSLRSEDAAVYYCARDRAGCSGGSCYYYGMDVWGQGTTVTVSS VL: NFMLTQPPSVSVSPGQTASITCSGNKLGDKYACWYQQKPGQSPVLVISQDSKRPSGIPERFSGSNSGNTATLTISGTQAMDEADYYCQAWDSRTVVFGGGTKLTVL is less than 0.9 µg/mL?
Response: Yes
